Quick reference: MIC of the listed items.
Tested on: Salmonella typhimurium
Test: Antimicrobial activity against Salmonella enterica serovar Typhimurium BN18 harboring plasmid encoded RamR gene by agar doubling dilution method
Type: functional, Salmonella enterica subsp. enterica serovar Typhimurium
Reply with just the number (in µg/mL).

Here are 5 molecules together with their reported answers.
1. CN(C)[C@@H]1C(O)=C(C(N)=O)C(=O)[C@@]2(O)C(O)=C3C(=O)c4c(O)cccc4[C@@](C)(O)[C@H]3C[C@@H]12	1
2. CCn1cc(C(=O)O)c(=O)c2ccc(C)nc21	4
3. O=C(O)c1cn(C2CC2)c2cc(N3CCNCC3)c(F)cc2c1=O	0.015
4. O=C(N[C@H](CO)[C@H](O)c1ccc([N+](=O)[O-])cc1)C(Cl)Cl	4
5. CS(=O)(=O)c1ccc([C@@H](O)[C@@H](CF)NC(=O)C(Cl)Cl)cc1	4

Kindly consider the entry below.
Measured MIC, CC1CCc2cc(F)cc3c(=O)c(C(=O)O)cn1c23 (stereo unspecified) : 0.5

----------
Tested on: Salmonella typhimurium
Assay: Antimicrobial activity against ramA::kan-deficient Salmonella enterica serovar Typhimurium BN18 by agar doubling dilution method
Assay type: functional, Salmonella enterica subsp. enterica serovar Typhimurium
Quick reference: log10(MIC) of the listed items.
Short version: log10 scale, MIC, µg/mL.

Here are 5 molecules together with their reported answers.
1) O=C(O)c1cn(C2CC2)c2cc(N3CCNCC3)c(F)cc2c1=O	-1.82
2) CS(=O)(=O)c1ccc([C@@H](O)[C@@H](CF)NC(=O)C(Cl)Cl)cc1	0.30
3) CC1CCc2cc(F)cc3c(=O)c(C(=O)O)cn1c23 (stereo unspecified)	-0.30
4) CN(C)[C@@H]1C(O)=C(C(N)=O)C(=O)[C@@]2(O)C(O)=C3C(=O)c4c(O)cccc4[C@@](C)(O)[C@H]3C[C@@H]12	0.00
5) CCn1cc(C(=O)O)c(=O)c2ccc(C)nc21	0.60

Measured log10(MIC), O=C(N[C@H](CO)[C@H](O)c1ccc([N+](=O)[O-])cc1)C(Cl)Cl : 0.60

----------
System: Salmonella typhimurium
Assay: Antimicrobial activity against multidrug-resistant Salmonella enterica serovar Typhimurium 902SA92 harboring GyrA S83A and D87N, GyrB S464F and ParC S80I mutant genes by agar doubling dilution method
Type: functional, Salmonella enterica subsp. enterica serovar Typhimurium
So basically, if MIC comes in under 30 µg/mL it's criterion met, and if it's 30 µg/mL or more it's criterion not met.

1) CS(=O)(=O)c1ccc([C@@H](O)[C@@H](CF)NC(=O)C(Cl)Cl)cc1 [FLORFENICOL]	criterion met
2) CC1CCc2cc(F)cc3c(=O)c(C(=O)O)cn1c23 (stereo unspecified) [FLUMEQUINE]	criterion not met
3) CN(C)[C@@H]1C(O)=C(C(N)=O)C(=O)[C@@]2(O)C(O)=C3C(=O)c4c(O)cccc4[C@@](C)(O)[C@H]3C[C@@H]12 [TETRACYCLINE]	criterion not met
4) O=C(N[C@H](CO)[C@H](O)c1ccc([N+](=O)[O-])cc1)C(Cl)Cl [CHLORAMPHENICOL]	criterion not met
5) O=C(O)c1cn(C2CC2)c2cc(N3CCNCC3)c(F)cc2c1=O [CIPROFLOXACIN]	criterion not met

Turning now to a further molecule:
**Q:** Does the reported MIC of the following molecule sit strictly below 30 µg/mL? CCn1cc(C(=O)O)c(=O)c2ccc(C)nc21 [NALIDIXIC ACID]
**A:** criterion not met
